Sourced from ChEMBL document CHEMBL1142695

# SYSTEM_TESTED: GABA-A receptor; alpha-1/beta-3/gamma-2 (Homo sapiens, UniProt P14867+P18507+P28472)
# Sequence (P14867 whole entry): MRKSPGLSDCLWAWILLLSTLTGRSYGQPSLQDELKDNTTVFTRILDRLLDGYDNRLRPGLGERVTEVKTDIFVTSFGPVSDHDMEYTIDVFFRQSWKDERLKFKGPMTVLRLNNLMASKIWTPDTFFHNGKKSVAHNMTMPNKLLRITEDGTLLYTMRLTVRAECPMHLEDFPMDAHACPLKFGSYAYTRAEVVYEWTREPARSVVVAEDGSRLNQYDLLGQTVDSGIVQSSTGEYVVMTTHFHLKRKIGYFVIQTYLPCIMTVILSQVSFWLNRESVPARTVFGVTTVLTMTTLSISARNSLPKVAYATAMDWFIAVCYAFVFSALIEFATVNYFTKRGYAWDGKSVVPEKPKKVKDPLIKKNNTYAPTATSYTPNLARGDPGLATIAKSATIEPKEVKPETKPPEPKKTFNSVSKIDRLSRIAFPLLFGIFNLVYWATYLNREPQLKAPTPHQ
# Sequence (P18507 whole entry): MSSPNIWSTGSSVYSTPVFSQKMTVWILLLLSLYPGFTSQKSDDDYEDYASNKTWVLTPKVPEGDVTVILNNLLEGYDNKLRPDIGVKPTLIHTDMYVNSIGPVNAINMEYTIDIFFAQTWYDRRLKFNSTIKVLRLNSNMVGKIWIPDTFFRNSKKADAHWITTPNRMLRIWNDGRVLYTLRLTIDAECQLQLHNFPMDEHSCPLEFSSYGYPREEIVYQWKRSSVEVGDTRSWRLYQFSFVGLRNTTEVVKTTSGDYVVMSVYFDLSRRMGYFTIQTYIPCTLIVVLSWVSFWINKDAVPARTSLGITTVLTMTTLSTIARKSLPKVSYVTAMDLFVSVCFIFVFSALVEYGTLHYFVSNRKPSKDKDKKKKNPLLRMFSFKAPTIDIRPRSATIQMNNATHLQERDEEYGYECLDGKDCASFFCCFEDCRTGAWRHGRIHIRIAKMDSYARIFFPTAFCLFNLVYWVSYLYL
# Sequence (P28472 whole entry): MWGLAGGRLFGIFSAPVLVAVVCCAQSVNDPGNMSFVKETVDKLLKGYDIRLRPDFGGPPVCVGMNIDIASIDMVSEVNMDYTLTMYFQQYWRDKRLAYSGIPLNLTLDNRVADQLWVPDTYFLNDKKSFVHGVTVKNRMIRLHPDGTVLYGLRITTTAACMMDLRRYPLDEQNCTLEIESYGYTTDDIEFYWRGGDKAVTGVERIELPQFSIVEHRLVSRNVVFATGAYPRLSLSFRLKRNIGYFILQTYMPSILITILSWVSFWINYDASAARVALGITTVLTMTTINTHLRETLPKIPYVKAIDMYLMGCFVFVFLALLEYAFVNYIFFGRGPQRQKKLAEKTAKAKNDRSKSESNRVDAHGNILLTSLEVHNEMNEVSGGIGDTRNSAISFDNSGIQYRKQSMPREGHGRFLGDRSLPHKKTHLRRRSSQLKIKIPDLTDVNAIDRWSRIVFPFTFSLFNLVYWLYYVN
# MEASUREMENT_NOTES: Inhibition of [3H]Ro-151788 binding to recombinant human gamma-aminobutyric-acid A receptor alpha-1-beta-3-gamma-2 subtype expressed in L (tk-) cells
// reported Ki per item
Supply the numeric figure in nM, leaving out any unit text.

ENTRY_SMILES	SYSTEM_TESTED	PARAMETER_MEASURED	RECORDED_NUMBER
CN(C(=O)COc1nn2c(-c3ccccc3)nnc2c2c1C1CCC2CC1)c1ccccc1	GABA-A receptor; alpha-1/beta-3/gamma-2 (Homo sapiens, UniProt P14867+P18507+P28472)	Ki	21
c1ccc(-c2nnc3c4c(c(OCc5cnc6ccccc6n5)nn23)C2CCC4CC2)cc1	GABA-A receptor; alpha-1/beta-3/gamma-2 (Homo sapiens, UniProt P14867+P18507+P28472)	Ki	82
c1ccc(-c2nnc3c4c(c(OCc5ncccc5OC5CCC5)nn23)C2CCC4CC2)cc1	GABA-A receptor; alpha-1/beta-3/gamma-2 (Homo sapiens, UniProt P14867+P18507+P28472)	Ki	32
c1ccc(-c2nnc3c4c(c(COc5ccccn5)nn23)C2CCC4CC2)cc1	GABA-A receptor; alpha-1/beta-3/gamma-2 (Homo sapiens, UniProt P14867+P18507+P28472)	Ki	440
Cc1cccnc1COc1nn2c(-c3ccccc3)nnc2c2c1C1CCC2CC1	GABA-A receptor; alpha-1/beta-3/gamma-2 (Homo sapiens, UniProt P14867+P18507+P28472)	Ki	9.8

Request: Record request: Ki value, item COc1ccc(-c2nnc3c4c(c(OCc5ccccn5)nn23)C2CCC4CC2)cc1
Result: 230

Request: Input Cc1cc(C)n(COc2nn3c(-c4ccccc4)nnc3c3c2C2CCC3CC2)n1
Result: 23

Request: Input c1ccc(-c2nnc3c4c(c(OCc5ccncn5)nn23)C2CCC4CC2)cc1
Result: 22

Request: Input Clc1ccc(COc2nn3c(-c4ccccc4)nnc3c3c2C2CCC3CC2)nn1
Result: 73

Request: Input Cc1conc1COc1nn2c(-c3ccccc3)nnc2c2c1C1CCC2CC1
Result: 80

Request: Input Oc1cccnc1COc1nn2c(-c3ccccc3)nnc2c2c1C1CCC2CC1
Result: 270

Request: Input Fc1ccccc1-c1nnc2c3c(c(OCc4ccccn4)nn12)C1CCC3CC1
Result: 28

Request: Input N#Cc1ccc(COc2nn3c(-c4ccccc4)nnc3c3c2C2CCC3CC2)cc1
Result: 310

Request: Input c1ccc(-c2nnc3c4c(c(OCc5cscn5)nn23)C2CCC4CC2)cc1
Result: 68

Request: Input Cc1cnc(COc2nn3c(-c4ccccc4)nnc3c3c2C2CCC3CC2)c(C)c1
Result: 3.4

Request: Input Cc1cnc(COc2nn3c(-c4ccccc4)nnc3c3c2C2CCC3CC2)s1
Result: 100

Request: Input Cn1ncnc1COc1nn2c(-c3ccccc3)nnc2c2c1C1CCC2CC1
Result: 11

Request: Input CSOc1ccc(COc2nn3c(-c4ccccc4)nnc3c3c2C2CCC3CC2)cc1
Result: 96

Request: Input Cc1nc(COc2nn3c(-c4ccccc4)nnc3c3c2C2CCC3CC2)no1
Result: 140

Request: Input c1ccc(-c2nnc3c4c(c(OCc5ccc6ccccc6n5)nn23)C2CCC4CC2)cc1
Result: 480

Request: Input Cc1noc(COc2nn3c(-c4ccccc4)nnc3c3c2C2CCC3CC2)n1
Result: 290

Request: Input N#Cc1cccnc1COc1nn2c(-c3ccccc3)nnc2c2c1C1CCC2CC1
Result: 13
